Tested on: Human Umbilical Vein Endothelial Cells (HUVEC)
Assay: Transwell migration of HUVEC
Type: cell-based
Conditions: 90 μg/mL, 24 h
Where no end group is shown, it is not given here.
For each of the substances below, state its inhibition rate of HUVEC migration.
Numbers only, in %.

Take a look at these entries with their results.
mPEG2-NHS20k-Arg-Gly-Ala-Asp-Arg-Ala-Gly-Gly-Gly-Gly-Arg-Gly-Asp ({mPEG2‑NHS 20 kDa}-RGADRAGGGGRGD) [mPEG2-NHS20k-HM-1]
58.07
mPEG-bALD20k-Arg-Gly-Ala-Asp-Arg-Ala-Gly-Gly-Gly-Gly-Arg-Gly-Asp ({mPEG‑bALD 20 kDa}-RGADRAGGGGRGD) [mPEG-bALD20k-HM-1]
53.82
mPEG-SC20k-Arg-Gly-Ala-Asp-Arg-Ala-Gly-Gly-Gly-Gly-Arg-Gly-Asp ({mPEG‑SC 20 kDa}-RGADRAGGGGRGD) [mPEG-SC20k-HM-1]
60.87

Now let's try a different one.
Task: Could you share which inhibition rate of HUVEC migration value was measured for mPEG-ALD20k-Arg-Gly-Ala-Asp-Arg-Ala-Gly-Gly-Gly-Gly-Arg-Gly-Asp ({mPEG‑ALD 20 kDa}-RGADRAGGGGRGD) [mPEG-ALD20k-HM-1] ?
Output: 60.82
